System: MV4-11
Test: Antiproliferative activity against human MV4-11 cells assessed as cell viability after 72 hrs by CCK8 assay
Type: functional, cell-based
Settings: MV4-11, 72 h
MEASURED ENDPOINT: IC50 (nM)

1. COc1cccc(-c2cn(C)c(=O)c3[nH]c(C(=O)NCc4ccc(C(=O)Nc5ccccc5N)cc4)cc23)c1
2. CC(C)Oc1ccc(C(C)(C)O)cc1-c1cn(C)c(=O)c2[nH]c(C(=O)NCc3ccc(C(=O)Nc4ccccc4N)cc3)cc12
Task for the reader: decide whether 1 or 2 has the larger IC50. Give the label of your selection. 1
(1: 250 nM, 2: 40 nM)

----------
Target: UniProt Q9UBN7
Sequence (Q9UBN7 whole entry): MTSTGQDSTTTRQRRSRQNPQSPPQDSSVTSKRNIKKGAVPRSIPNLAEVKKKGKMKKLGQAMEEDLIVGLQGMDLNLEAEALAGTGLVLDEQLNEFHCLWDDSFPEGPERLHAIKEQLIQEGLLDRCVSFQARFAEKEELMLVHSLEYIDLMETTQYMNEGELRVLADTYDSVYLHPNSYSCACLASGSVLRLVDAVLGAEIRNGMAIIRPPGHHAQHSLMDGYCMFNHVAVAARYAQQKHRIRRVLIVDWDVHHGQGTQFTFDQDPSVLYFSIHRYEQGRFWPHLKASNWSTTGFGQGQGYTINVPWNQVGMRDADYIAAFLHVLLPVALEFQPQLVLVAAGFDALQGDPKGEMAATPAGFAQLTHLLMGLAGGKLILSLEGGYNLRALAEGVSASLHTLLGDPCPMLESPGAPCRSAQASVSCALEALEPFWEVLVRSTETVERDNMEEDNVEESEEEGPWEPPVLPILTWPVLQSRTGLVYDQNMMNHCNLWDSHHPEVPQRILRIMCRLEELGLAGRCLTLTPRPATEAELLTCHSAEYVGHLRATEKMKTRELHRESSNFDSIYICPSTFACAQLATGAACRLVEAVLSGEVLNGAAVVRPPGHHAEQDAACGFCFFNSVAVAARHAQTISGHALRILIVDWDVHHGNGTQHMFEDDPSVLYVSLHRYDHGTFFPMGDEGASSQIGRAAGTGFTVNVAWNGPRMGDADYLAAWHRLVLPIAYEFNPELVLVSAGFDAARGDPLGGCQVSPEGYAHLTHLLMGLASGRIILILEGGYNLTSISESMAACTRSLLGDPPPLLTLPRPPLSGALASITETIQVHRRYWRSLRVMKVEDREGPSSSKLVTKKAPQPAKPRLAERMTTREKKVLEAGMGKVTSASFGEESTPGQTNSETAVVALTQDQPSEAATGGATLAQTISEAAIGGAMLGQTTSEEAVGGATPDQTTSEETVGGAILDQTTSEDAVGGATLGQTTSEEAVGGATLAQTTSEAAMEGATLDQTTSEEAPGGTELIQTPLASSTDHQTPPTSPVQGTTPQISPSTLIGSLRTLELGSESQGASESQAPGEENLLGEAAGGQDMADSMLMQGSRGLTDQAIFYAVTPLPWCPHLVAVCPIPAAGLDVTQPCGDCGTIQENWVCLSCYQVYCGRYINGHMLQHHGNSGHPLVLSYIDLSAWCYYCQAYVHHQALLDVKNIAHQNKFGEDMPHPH
MEASURED ENDPOINT: IC50 (nM)

Below are worked cases with known answers.
In [3]: df
Out[3]:
                         compound_structure  measured_endpoint  unit_name  result_value
0  CC(C)Oc1ccc(C(C)(C)O)cc1-c1cn(C)c(=O)c2[nH]c(C(=O)NCc3ccc(C(=O)NO)cc3)cc12               IC50         nM            52
1  Cn1cc(-c2cc(C(C)(C)O)ccc2Oc2ccc(F)cc2F)c2cc(C(=O)NCc3ccc(C(=O)NO)cc3)[nH]c2c1=O               IC50         nM          15.6

P. Cc1cc(F)cc(C)c1Oc1ccc(C(C)(C)O)cc1-c1cn(C)c(=O)c2[nH]c(C(=O)NCCCCCCC(=O)NO)cc12
Q. Cn1cc(-c2cc(C(C)(C)O)ccc2OC2CC2)c2cc(C(=O)NCCCCCCC(=O)NO)[nH]c2c1=O
R. Cn1cc(-c2ccccc2Oc2ccccc2)c2cc(C(=O)NCCCC(=O)NO)[nH]c2c1=O
Sequence the entries by IC50, beginning with the highest number. Reply format: the labels, ordered as requested. R, P, Q

A. Cn1cc(-c2ccccc2Oc2ccccc2)c2cc(C(=O)NCCCCCC(=O)NO)[nH]c2c1=O
B. Cn1cc(-c2cc(C(C)(C)O)ccc2OC2CC2)c2cc(C(=O)NCc3ccc(C(=O)NO)cc3)[nH]c2c1=O
// compare: A vs B , metric IC50, want the smaller Give the label of your selection. A
(A: 3.4 nM, B: 7.9 nM)
